Reported combination Emax is given for each of the following molecules.
System: MES-SA (Other Solid Carcinomas)
method.summary: combination Emax (second highest fraction inhibited in the dose matrix, 72 h); higher = more inhibition; extreme values may be limits of the assay
Keep it simple and answer with nothing but the number.

// worked examples, combination Emax included
>>> assay_result("NC1(C(=O)N[C@@H](CCO)c2ccc(Cl)cc2)CCN(c2ncnc3[nH]ccc23)CC1 [Capivasertib] + Cn1cnc2c(F)c(Nc3ccc(Br)cc3Cl)c(C(=O)NOCCO)cc21 [Selumetinib] (first compound max 10 µM, 7x7, partner max 10 µM)")
0.496
>>> assay_result("Cc1c2c(nn1C)CSCc1cc(n(C)n1)CSc1cc(c3ccccc3c1)OCCCc1c(C(=O)O)n(C)c3c-2c(Cl)ccc13 [AZD5991] + C1CN(CCC1(C(=O)N[C@@H](CCO)C2=CC=C(C=C2)Cl)N)C3=NC=NC4=C3C=CN4 [Capivasertib] (first compound max 1 µM, 7x7, partner max 3 µM)")
0.367
>>> assay_result("C[C@@H]1COCCN1c1cc(C2([S@](C)(=N)=O)CC2)nc(-c2ccnc3[nH]ccc23)n1 [AZD6738] + O=C(c1cc(Cc2n[nH]c(=O)c3ccccc23)ccc1F)N1CCN(C(=O)C2CC2)CC1 [Olaparib] (first compound max 10 µM, 7x7, partner max 10 µM)")
0.643
>>> assay_result("CC(=O)c1c(C)c2cnc(Nc3ccc(N4CCNCC4)cn3)nc2n(C2CCCC2)c1=O [Palbociclib] + Cc1c2c(nn1C)CSCc1cc(n(C)n1)CSc1cc(c3ccccc3c1)OCCCc1c(C(=O)O)n(C)c3c-2c(Cl)ccc13 [AZD5991] (first compound max 10 µM, 7x7, partner max 1 µM)")
0.513
>>> assay_result("COc1cc2ncnc(Nc3ccc(F)c(Cl)c3)c2cc1OCCCN1CCOCC1 [Gefitinib] + CC(C)n1c(=O)n(C)c2cnc3cc(F)c(-c4ccc(OCCCN5CCCCC5)nc4)cc3c21 [AZD1390] (first compound max 10 µM, 7x7, partner max 0.3 µM)")
0.0714
>>> assay_result("COc1cccc(OCCCN)c1-c1cc(Nc2cnc(C#N)cn2)n[nH]1 [Prexasertib] + C[C@@H]1COCCN1C2=NC(=NC(=C2)C3(CC3)[S@](=N)(=O)C)C4=C5C=CNC5=NC=C4 [AZD6738] (first compound max 1 µM, 7x7, partner max 10 µM)")
0.757

Moving on to another molecule below.
Enquiry: Quick check: combination Emax on MES-SA (Other Solid Carcinomas), item CN(CCO)CC[C@H](CSc1ccccc1)Nc1ccc(S(=O)(=O)NC(=O)c2ccc(N3CCC([C@@H](O)c4ccccc4-c4ccc(Cl)cc4)CC3)cc2)cc1S(=O)(=O)C(F)(F)F [AZD4320] + CCN(CCO)CCCOc1ccc2c(Nc3cc(CC(=O)Nc4cccc(F)c4)[nH]n3)ncnc2c1 [AZD2811] (first compound max 1 µM, 7x7, partner max 1 µM) ?
Return: 0.513

Every entry's value here was drawn from the supplement of paper PMC11061612.
